Heads up, these compounds all have log10 of IC50 values measured for HsSQS (Homo sapiens, UniProt P37268).
# log10 transformed; quantity=IC50; unit=nM

// below: answered compounds
compound | targetOfAssay | endpointName | testValue
CCCCCCCCC[n+]1ccn(CC(O)(P(=O)([O-])O)P(=O)(O)O)c1 (stereo not drawn) | HsSQS (Homo sapiens, UniProt P37268) | log10 of IC50 | 1.88
CCCCCCCCCCC[n+]1ccn(CC(O)(P(=O)([O-])O)P(=O)(O)O)c1 (stereo not drawn) | HsSQS (Homo sapiens, UniProt P37268) | log10 of IC50 | 2.04
CCCCCC[n+]1ccn(CC(P(=O)([O-])O)P(=O)(O)O)c1 (stereo not drawn) | HsSQS (Homo sapiens, UniProt P37268) | log10 of IC50 | 3.43
CCCCCCCC[n+]1ccn(CC(O)(P(=O)([O-])O)P(=O)(O)O)c1 (stereo not drawn) | HsSQS (Homo sapiens, UniProt P37268) | log10 of IC50 | 2.43
CCCCCCCCCCC[n+]1ccn(CC(P(=O)([O-])O)P(=O)(O)O)c1 (stereo not drawn) | HsSQS (Homo sapiens, UniProt P37268) | log10 of IC50 | 2.04

// CCCCCCCCCCCCCC[n+]1ccn(CC(P(=O)([O-])O)P(=O)(O)O)c1 (stereo not drawn) : log10 of IC50 value = 2.46

// recorded log10 of IC50 for CCCCCC[n+]1ccn(CC(O)(P(=O)([O-])O)P(=O)(O)O)c1 (stereo not drawn) : 3.48

Briefly, log10 of IC50 measured for CCCCCCCCCCCCC[n+]1ccn(CC(P(=O)([O-])O)P(=O)(O)O)c1 (stereo not drawn) : 2.34

* * *

Test system: Vero cells
methodDescription: Vero (host) cell proliferation, alamarBlue
Format: cell-based
assayConditions: Chlorocebus sabaeus, Vero, read-out: IC50 Vero cells (host cell growth)
endpointName: pIC50
Just so you know, pIC50 here is -log10 of the concentration in molar units; reply with that number alone.

compound | pIC50
CCCCCCCCCCCCCCCn1cc[n+](CC(O)(P(=O)([O-])O)P(=O)(O)O)c1 (stereo not shown) [BPH-1325] | 4.19

Let's switch to this compound now.
Recorded pIC50 (compound CCCCCCCCCC[n+]1ccn(CC(O)(P(=O)([O-])O)P(=O)(O)O)c1 (stereo not shown) [BPH-1237] ): 3.42

* * *

targetOfAssay: TcFPPS (Trypanosoma cruzi, UniProt Q95WL3)
Sequence (Q95WL3 1-362): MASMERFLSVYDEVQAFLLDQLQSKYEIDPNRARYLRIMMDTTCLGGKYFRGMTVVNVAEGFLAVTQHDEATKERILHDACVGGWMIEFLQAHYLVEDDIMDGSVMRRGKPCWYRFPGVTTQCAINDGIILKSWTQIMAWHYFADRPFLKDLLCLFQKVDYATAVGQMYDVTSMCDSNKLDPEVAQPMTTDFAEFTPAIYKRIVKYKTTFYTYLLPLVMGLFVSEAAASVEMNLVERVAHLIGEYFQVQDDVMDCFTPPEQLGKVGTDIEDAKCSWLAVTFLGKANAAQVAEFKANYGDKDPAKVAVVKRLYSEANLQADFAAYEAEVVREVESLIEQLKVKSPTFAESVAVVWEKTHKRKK
Consider the cut-off 400 nM. If the recorded IC50 is strictly smaller, the label is met; if not, the label is not met.

compound | classification
CCCCCCCCCCCC[n+]1ccn(CC(O)(P(=O)([O-])O)P(=O)(O)O)c1 (stereo not drawn) | not met
CCCCCCCCC[n+]1ccn(CC(P(=O)([O-])O)P(=O)(O)O)c1 (stereo not drawn) | met
CCCCCCCCCCCCC[n+]1ccn(CC(O)(P(=O)([O-])O)P(=O)(O)O)c1 (stereo not drawn) | not met
CCCCCCCCCCCCCC[n+]1ccn(CC(P(=O)([O-])O)P(=O)(O)O)c1 (stereo not drawn) | not met

Exercise: Please state whether IC50 is below 400 nM for CC[n+]1ccn(CC(P(=O)([O-])O)P(=O)(O)O)c1 (stereo not drawn)
Solution: met

* * *

The following compounds have recorded log10 of IC50 on TcFPPS (Trypanosoma cruzi).
Friendly reminder: values = log10 of IC50, unit nM.

compound | testValue
CCCCCCCCCCCCC[n+]1ccn(CC(P(=O)([O-])O)P(=O)(O)O)c1 (stereo not drawn) [BPH-1329] | 2.96
CCCC[n+]1ccn(CC(P(=O)([O-])O)P(=O)(O)O)c1 (stereo not drawn) [BPH-1215] | 2.59
O=P(O)(O)C(Cn1ccnc1)P(=O)(O)O [BPH-301] | 2.41
CCCCCC[n+]1ccn(CC(P(=O)([O-])O)P(=O)(O)O)c1 (stereo not drawn) [BPH-1216] | 1.95

Kindly consider the entry below.
// log10 of IC50 lookup, compound = CCCC[n+]1ccn(CC(O)(P(=O)([O-])O)P(=O)(O)O)c1 (stereo not drawn) [BPH-1260] , result: 2.57

* * *

Tested on: T. cruzi amastigotes
methodDescription: T. cruzi amastigote cell growth inhibition in Vero cells
Assay type: cell-based, Trypanosoma cruzi
assayConditions: Trypanosoma cruzi, Vero, 72 h; means ± SD from 2 or 3 independent experiments; day 3 post-infection
endpointName: pIC50
pIC50 (log units): -log10 of the concentration in mol/L.

molecule | testValue
CCCCCCCCCCCCCCCn1cc[n+](CC(P(=O)([O-])O)P(=O)(O)O)c1 (stereo not drawn) [BPH-1344] | 6.00
O=C(Cn1ccnc1[N+](=O)[O-])NCc1ccccc1 [Benznidazole, reference compound] | 5.72

Kindly note the recorded pIC50 for CCCCCCCCCCCCCCCn1cc[n+](CC(O)(P(=O)([O-])O)P(=O)(O)O)c1 (stereo not drawn) [BPH-1325] , which is 5.52

* * *

targetOfAssay: TcSQS (Trypanosoma cruzi, UniProt Q4CWB4)
Sequence (Q4CWB4 entry or part of it): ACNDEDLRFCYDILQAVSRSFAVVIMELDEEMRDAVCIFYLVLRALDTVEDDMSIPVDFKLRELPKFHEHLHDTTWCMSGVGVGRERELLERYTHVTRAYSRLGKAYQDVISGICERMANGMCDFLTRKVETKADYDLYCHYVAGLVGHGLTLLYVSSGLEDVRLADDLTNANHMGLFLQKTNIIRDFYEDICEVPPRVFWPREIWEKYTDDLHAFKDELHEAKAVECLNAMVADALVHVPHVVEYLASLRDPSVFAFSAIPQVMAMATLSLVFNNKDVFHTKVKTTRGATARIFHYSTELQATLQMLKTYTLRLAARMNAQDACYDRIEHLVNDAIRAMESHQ
pIC50: −log10 of the molar value.
# binarize pIC50: threshold 7 inclusive, high side Yes, low side No

Worked cases, answers included:
compound | classification
CCCCC[n+]1ccn(CC(O)(P(=O)([O-])O)P(=O)(O)O)c1 (stereo not shown) | No
C[n+]1ccn(CC(O)(P(=O)([O-])O)P(=O)(O)O)c1 (stereo not shown) | No
CCCCCCC[n+]1ccn(CC(P(=O)([O-])O)P(=O)(O)O)c1 (stereo not shown) | No
CCCCCCC[n+]1ccn(CC(O)(P(=O)([O-])O)P(=O)(O)O)c1 (stereo not shown) | No
CC[n+]1ccn(CC(O)(P(=O)([O-])O)P(=O)(O)O)c1 (stereo not shown) | No
CC[n+]1ccn(CC(P(=O)([O-])O)P(=O)(O)O)c1 (stereo not shown) | No

Exercise: Could you please find out whether CCCCCCCCCCCC[n+]1ccn(CC(P(=O)([O-])O)P(=O)(O)O)c1 (stereo not shown) has pIC50 that meets 7 or exceeds it?
Solution: Yes

Exercise: Could you please find out whether CCCCCCCCC[n+]1ccn(CC(O)(P(=O)([O-])O)P(=O)(O)O)c1 (stereo not shown) has pIC50 that meets 7 or exceeds it?
Solution: Yes

Exercise: Hi, just wondering whether CCCCCCCCC[n+]1ccn(CC(P(=O)([O-])O)P(=O)(O)O)c1 (stereo not shown) shows pIC50 of 7 or higher.
Solution: Yes

* * *

targetOfAssay: HsSQS (Homo sapiens)
Construct: His-tag; made in house
Sequence (P37268 whole entry): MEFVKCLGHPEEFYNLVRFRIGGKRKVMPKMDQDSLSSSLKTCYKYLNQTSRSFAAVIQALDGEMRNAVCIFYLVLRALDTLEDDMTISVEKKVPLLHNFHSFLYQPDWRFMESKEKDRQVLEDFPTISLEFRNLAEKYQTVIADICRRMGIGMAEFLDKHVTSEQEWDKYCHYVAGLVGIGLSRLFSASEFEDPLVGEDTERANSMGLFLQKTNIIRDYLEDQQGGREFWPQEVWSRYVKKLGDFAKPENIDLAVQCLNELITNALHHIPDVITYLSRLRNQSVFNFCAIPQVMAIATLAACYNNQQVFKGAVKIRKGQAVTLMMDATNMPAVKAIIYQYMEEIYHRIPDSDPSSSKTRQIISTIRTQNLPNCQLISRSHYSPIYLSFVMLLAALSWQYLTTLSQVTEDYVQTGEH
methodDescription: Human squalene synthase inhibition
Type: biochemical
endpointName: IC50

The following compounds have reported results that may help.
compound | targetOfAssay | IC50
CCC[n+]1ccn(CC(O)(P(=O)([O-])O)P(=O)(O)O)c1 (stereo not drawn) [BPH-1336] | HsSQS (Homo sapiens) | > 10000 nM
CC[n+]1ccn(CC(O)(P(=O)([O-])O)P(=O)(O)O)c1 (stereo not drawn) [BPH-1335] | HsSQS (Homo sapiens) | > 10000 nM
CCCCC[n+]1ccn(CC(O)(P(=O)([O-])O)P(=O)(O)O)c1 (stereo not drawn) [BPH-1324] | HsSQS (Homo sapiens) | > 10000 nM

Please fill in: IC50 reported for C[n+]1ccn(CC(P(=O)([O-])O)P(=O)(O)O)c1 (stereo not drawn) [BPH-1224] = > 10000 nM

Input CCCCCCCCCCCC[n+]1ccn(CC(O)(P(=O)([O-])O)P(=O)(O)O)c1 (stereo not drawn) [BPH-1269] . Output IC50: 130 nM

* * *

UniProt:Q4CWB4 pIC50 data
Note: pIC50 values are expressed as the negative base-10 logarithm of concentration in M.

Solved entries:
compound | testValue
CCCCCCCCCCCCCCCn1cc[n+](CC(P(=O)([O-])O)P(=O)(O)O)c1 (stereo not shown) | 6.85
CCCCCC[n+]1ccn(CC(O)(P(=O)([O-])O)P(=O)(O)O)c1 (stereo not shown) | 5.51
CCCCCCCCCCCC[n+]1ccn(CC(O)(P(=O)([O-])O)P(=O)(O)O)c1 (stereo not shown) | 7.34

pIC50 value, target or system UniProt:Q4CWB4, for CCCCCCCC[n+]1ccn(CC(O)(P(=O)([O-])O)P(=O)(O)O)c1 (stereo not shown) : 6.96

Hey, UniProt:Q4CWB4 data for CCCCCCCCCCC[n+]1ccn(CC(P(=O)([O-])O)P(=O)(O)O)c1 (stereo not shown) : pIC50 came out at 8.00

The measured pIC50 that CCCCCCCCCCCCC[n+]1ccn(CC(O)(P(=O)([O-])O)P(=O)(O)O)c1 (stereo not shown) showed for UniProt:Q4CWB4 is 7.19

Log: UniProt:Q4CWB4, compound CCCCCCCCCCCCCC[n+]1ccn(CC(O)(P(=O)([O-])O)P(=O)(O)O)c1 (stereo not shown) , pIC50 = 6.92

Entry CCCCCCCCCCCCCCCn1cc[n+](CC(O)(P(=O)([O-])O)P(=O)(O)O)c1 (stereo not shown) , tested on UniProt:Q4CWB4, has a reported pIC50 of 7.00
